test system: Saccharomyces cerevisiae; test: protein stability index of tFT-peptide fusion (C-terminal peptide) (PSI (0-1 scale)); higher = more stable (slower turnover); settings: genetic background: wild type; temperature: 30 C
quantity measured: protein stability index

Take a look at these entries with their results.
PPPPPPPRGPPR; 0.627
CIATINKMTRRI; 0.67
VQDALPLLVPPF; 0.762
FSVDASLPLSSV; 0.675
NLSLYFGGVLVL; 0.603
GPTLLVSRIAVI; 0.249
PSGRPPGHDNLV; 0.666
EGDRLVKEVGEE; 0.654

The following sequences each have a reported value; give each one's protein stability index.
1. LGLGERLSINTF
2. FPVPPPPHPPLH
3. EPDISTRGPGWT

Return:
1: 0.7; 2: 0.675; 3: 0.74

The following sequences each have a reported value; give each one's protein stability index.
1. LPPFSSPLSSLR
2. PGTLPDDLASTR
3. RGGGGGRKVSVG
4. KRKKNISKTEKS
5. GIGLYMWRNSKW

Return:
[0.693, 0.673, 0.658, 0.724, 0.796]

The following sequences each have a reported value; give each one's protein stability index.
1. ASVLSTQDPGEY
2. LPGTTFTPPVAS
3. FCSNLLSMVIAV

Return:
0.676
0.662
0.432

----------
Give measured protein stability index for each item. Keep answers brief.
test system: Saccharomyces cerevisiae; assay: protein stability index of tFT-peptide fusion (C-terminal peptide) (PSI (0-1 scale)); higher = more stable (slower turnover); conditions: genetic background: wild type; temperature: 30 C

PPLAPASPSPLP; 0.698
THPPPPPPACSV; 0.632
KYVYFAPVLDVI; 0.659
GVGGGVRLVVSR; 0.633
CQPNRKRETRGN; 0.732
SGFLRFRGLVCY; 0.359
PQYLALLRTSIP; 0.739
GGRGVVVGQGAG; 0.705
FLVKFYKYPSTR; 0.707
ALPARFSSFRLP; 0.678

The following sequences each have a reported value; give each one's protein stability index.
1. GGGGGEAGVIGR
2. PFFFSFILVLFW
3. LEFFPSSRFFGF
4. SPITSLSGGTKR
5. TRKKENERRKNG
6. RVCFSLGAEFSF

Return:
[0.892, 0.264, 0.773, 0.631, 0.422, 0.665]

The following sequences each have a reported value; give each one's protein stability index.
1. PPNGAATTQDRL
2. LRSGFVVTLSLS

Return:
0.699
0.621

The following sequences each have a reported value; give each one's protein stability index.
1. YALLLPRSVFQF
2. RCKCGDALTVIH
3. WLLKGTVTLMMW
4. GMGWGTVGDING
5. WSSSVGIKGAWF
6. CFLIFQRSWLFR

Return:
1: 0.517; 2: 0.691; 3: 0.569; 4: 0.709; 5: 0.707; 6: 0.576

The following sequences each have a reported value; give each one's protein stability index.
1. KKKKKKKKKKKN
2. RPCSVPFSNTSP
3. QNKTKDQKQRRQ
4. KRGNGIEGRVGG

Return:
[0.595, 0.666, 0.697, 0.685]

The following sequences each have a reported value; give each one's protein stability index.
1. GPSIRWWGGGRR
2. YRLAPGCSFHPT
3. AEKTKAEKNITK

Return:
[0.731, 0.666, 0.752]

The following sequences each have a reported value; give each one's protein stability index.
1. GRWGGWGGRGCG
2. GQSRQKNEKKIK
3. VGVVLNEPYSQE
4. FGLVYCSGLTVS
5. GYSFWSCVAFFS
6. LETVPVPPPPSA
7. DRVLRGAIWVSV
8. FDAWSLASASLV

Return:
[0.696, 0.687, 0.702, 0.54, 0.628, 0.747, 0.571, 0.741]

The following sequences each have a reported value; give each one's protein stability index.
1. ESAARGWSSGVG
2. PLPPLLAGAGLS

Return:
[0.726, 0.704]

----------
test system: Saccharomyces cerevisiae; assay: protein stability index of tFT-peptide fusion (C-terminal peptide) (PSI (0-1 scale)); higher = more stable (slower turnover); conditions: genetic background: wild type; temperature: 30 C
# label = T if protein stability index >= 0.7 else F

Record excerpt, results attached:
QPGGTHDLGGTG; F
VYFLWPRFVCDA; F
PPHAYTSTPSLF; F
SRNSSRYLLLVS; F
FPYPFSSSCFSS; F

Enquiry: Reported protein stability index reaches at least 0.7 for LKAWQRRWEGVR ?
Return: T

Enquiry: Reported protein stability index reaches at least 0.7 for PPPPPPLLPPPA ?
Return: T

Enquiry: Reported protein stability index reaches at least 0.7 for LGGVGTLVHCFV ?
Return: F

Enquiry: Reported protein stability index reaches at least 0.7 for GGCVGVLGGGGF ?
Return: F

Enquiry: Reported protein stability index reaches at least 0.7 for VRGGGSREERGC ?
Return: F

----------
Give measured protein stability index for each item. Keep answers brief.
test system: Saccharomyces cerevisiae; test: protein stability index of tFT-peptide fusion (C-terminal peptide) (PSI (0-1 scale)); higher = more stable (slower turnover); conditions: genetic background: wild type; temperature: 30 C
Give bare numbers.

Take a look at these entries with their results.
RCSLGWKRFDWR; 0.706
SGLRPGAGDCSA; 0.611
LVLYPFPPLHST; 0.675
YRLTIVWFFLAL; 0.427
WGRFFWGCGVWV; 0.55
ARLGSVFLDPSG; 0.648
VKASPSDGGIVP; 0.725
CGLCDISFDLVM; 0.626

The following sequences each have a reported value; give each one's protein stability index.
1. FFGFFWLFLLFC
2. CDTIPNPLYKYD
3. RQLPPRAPAARG
4. GHWRQCSVAEGA
5. QAVPRAAHLHPL
6. LLFPALPPPPVR
7. FVLRFRGMRPSN

Return:
1: 0.267; 2: 0.75; 3: 0.661; 4: 0.643; 5: 0.66; 6: 0.674; 7: 0.673

The following sequences each have a reported value; give each one's protein stability index.
1. CLVDSSSFSLIF
2. FESRDMVGWFGG

Return:
0.742
0.674

The following sequences each have a reported value; give each one's protein stability index.
1. PRSRPTCYSRPG
2. RSSLAVSTKVER

Return:
[0.702, 0.639]

----------
system: Saccharomyces cerevisiae; assay: protein stability index of tFT-peptide fusion (C-terminal peptide) (PSI (0-1 scale)); higher = more stable (slower turnover); conditions: genetic background: wild type; temperature: 37 C
Give measured protein stability index for each item. Keep answers brief.
One number for each entry.

Take a look at these entries with their results.
LWGLVGVCLVLC; 0.134
RMLSLFFPLRTL; 0.453
FCLLRYPFVGVL; 0.514
PDRSTILHISGF; 0.728
SSGRLRFISRIH; 0.597
ARKWVAVTVTLW; 0.317
ILLYCVLIDPYS; 0.361
LRQKIIYWWLWL; 0.352

The following sequences each have a reported value; give each one's protein stability index.
1. WPRSFSIILLSR
2. LPFFSFSPWWFY
3. RPCLSALRFRFF

Return:
[0.419, 0.497, 0.32]

The following sequences each have a reported value; give each one's protein stability index.
1. VWPLAFFLRFFI
2. AERPVLIIIEFG
3. SWFRRPFPPRLL
4. WGLPVGVESSGG
5. LFLPFLPTLALL
6. VVWFCGFFFVMV

Return:
[0.362, 0.525, 0.0127, 0.733, 0.736, 0.465]

The following sequences each have a reported value; give each one's protein stability index.
1. CRWHLRIVRGLM
2. SLRICACMTVSW
3. LLSLLLDPLLCL
4. SRVHHLWAILVP
5. VCFAWWGARCVA
6. FCCSVFCFLCLY
7. VILCSCSFVLRP

Return:
1: 0.415; 2: 0.29; 3: 0.617; 4: 0.339; 5: 0.534; 6: 0.518; 7: 0.562

The following sequences each have a reported value; give each one's protein stability index.
1. CLRVSFFFWLFA
2. WLMVGVDWRFVG
3. FVCFSFFFPFLL
4. KERHRNKRKQIA
5. CVEACVWYNAGL

Return:
1. 0.424
2. 0.0927
3. 0.238
4. 0.43
5. 0.764

----------
tested on: Saccharomyces cerevisiae; experiment: protein stability index of tFT-peptide fusion (C-terminal peptide) (PSI (0-1 scale)); higher = more stable (slower turnover); conditions: genetic background: das1 deletion; temperature: 30 C
# label = YES if protein stability index >= 0.7 else NO

AVNTLLWQEQYS [YDR042C C-terminal 12 aa]; YES

Enquiry: Reported protein stability index reaches at least 0.7 for EFLTNSILTRRK [COQ1 C-terminal 12 aa] ?
Return: YES

Enquiry: Reported protein stability index reaches at least 0.7 for FIFYSILPTNVI [YPR123C C-terminal 12 aa] ?
Return: NO

Enquiry: Reported protein stability index reaches at least 0.7 for SLNLILISMTFI [YCR097W-A C-terminal 12 aa] ?
Return: NO

Enquiry: Reported protein stability index reaches at least 0.7 for PIICASVTFLPT [YAL056C-A C-terminal 12 aa] ?
Return: NO
